- Tested on: UACC-62 melanoma
- Protocol Notes: NCI tumour cell line growth inhibition, 48 h
Recorded Endpoint: TGI

Answered examples (4):
# Molecule, Measurement Target, TGI
rows = [
    ("CSC(SC)(C(=O)O)c1cc(-c2c(Cl)cccc2Cl)no1", "UACC-62 melanoma", "> 100 µM"),
    ("CCOP(=Nc1ccc(N(C)C)cc1)(OCC)OCC", "UACC-62 melanoma", "> 100 µM"),
    ("O=C(Nc1cccc(O)c1)C(=O)C1C(=O)NC(=S)NC1=O", "UACC-62 melanoma", "> 100 µM"),
    ("COc1cc(C=O)c(-c2c(C=O)ccc3c2OCO3)c(OC)c1OC", "UACC-62 melanoma", "> 100 µM"),
]

Now for the molecule whose TGI we want.
# query: TGI of entry N/N=C\c1c2ccccc2c(=O)n2c1oc1ccccc12
19.7 µM

====

- System: A498 renal
- Protocol Notes: NCI tumour cell line growth inhibition, 48 h
Recorded Endpoint: TGI

Guide cases for TGI, answers given:
# Compound, TGI
rows = [
    ("COc1ccc2c(c1)NC1=C(C(=O)OC1)C2c1cc(OC)c(OC)c(OC)c1 (stereo unspecified)", "< 0.01 µM"),
    ("COC(=O)C1Cc2cc3c(cc2C1=O)CCC3 (stereo unspecified)", "> 100 µM"),
    ("O=C(CSc1nnc(-c2ccccn2)s1)N/N=C/c1ccccc1", "> 100 µM"),
    ("CN(C)/C=C/C(=CC=[N+](C)C)/C=C/N(C)C", "> 100 µM"),
    ("CC1(C)C2CCC1(C)C(N/C(Sc1ccccc1)=C(/C(Cl)=C(Cl)Cl)[N+](=O)[O-])C2 (stereo unspecified)", "28.2 µM"),
]

Form field: reported TGI of C=CC[P@]1(=O)O[C@H](c2ccccc2)[C@H](C)N1C
> 100 µM

====

- Tested on: UACC-257 melanoma
- Protocol Notes: NCI tumour cell line growth inhibition, 48 h; in the data active = GI50 below about 0.43 µM; inactive = the rest
Thanks in advance; please answer with one of these: YES for active, NO for inactive

Field: outcome | Entry: CCCC(C)c1ccc(OCCCCCCN2CCNCC2)cc1 (centres undefined)
NO

====

TGI by entry:
- Test system: SR leukemia
- Protocol Notes: NCI tumour cell line growth inhibition, 48 h

Some entries whose results are on file:
# Molecule, Assay Value
rows = [
    ("CCOc1cccc(/C=N/NC(=O)c2cccc(Nc3ccnc(C(F)(F)F)c3)c2)c1O", "8.67 µM"),
    ("Cc1ccc(C(=O)N/N=C(\\N=Nc2cccc([N+](=O)[O-])c2)c2ccc(N(CCC#N)CCC#N)cc2C)cc1", "> 100 µM"),
    ("C=C(C)C1CC2(C)C(C)CC(O)CC2C(OC(=O)C=C(C)C)C1O (stereo not given)", "51.9 µM"),
    ("O=C(O)CSCCc1ccccc1", "> 100 µM"),
]

Now examine the next entry.
// map CC(C)CCNC(=O)c1ccc(CNC(=O)/C=C/c2cccc(Oc3ccccc3)c2)cc1 to recorded TGI (system: SR leukemia)
> 100 µM

====

- System: SF-295 CNS
- Protocol Notes: NCI tumour cell line growth inhibition, 48 h; in the data active = GI50 below about 0.43 µM; inactive = the rest
// allowed return values: true (1) = active, false (0) = inactive

Solved cases (4 shown):
# Molecule, Qualitative Label
records = [
    ("CCC[CH2][Sn]([CH2]CCC)([O]C(=O)CN)[O]C(=O)CN", "false (0)"),
    ("[N-]=[N+]=NCCCn1c2c(c3ccc([N+](=O)[O-])cc3c1=O)C(=O)c1ccccc1-2", "false (0)"),
    ("CCCC(C)c1ccc(OCCCCCCN2CCNCC2)cc1 (stereo not given)", "false (0)"),
    ("C=C(C)[C@@H]1CC[C@]2(COCCCN)CC[C@]3(C)[C@H](CC[C@@H]4[C@@](C)(CCCNCCCN)[C@H](C(=C)C)CC[C@]43C)[C@@H]12", "false (0)"),
]

Kindly review the next molecule as well.
// param item: COc1ccc2c(c1)C(=O)CCc1cc(OC)c(OC)c(OC)c1-2 ; yields the recorded call
true (1)
